# conditionInfo: in water, 293.15 K
quantityKind: solubility (mole fraction)
In your answer, state the number alone without any accompanying words.

solubility (mole fraction) reading for Nc1ccccc1N : 0.00545

###

# conditionInfo: in acetonitrile, 305.65 K
quantityKind: solubility (mole fraction)
A bare number is all that is needed in reply.

solubility (mole fraction) reported for this compound Nc1ccccc1N : 0.104

###

# conditionInfo: in water, 315.65 K
quantityKind: solubility (mole fraction)
Respond numerically, and do not add a unit to the figure.

// solubility (mole fraction) value for Nc1ccccc1N : 0.00923

###

# conditionInfo: in water, 290.65 K
quantityKind: solubility (mole fraction)
Keep the answer to the number alone.

Given item Nc1ccccc1N , the value recorded as its solubility (mole fraction) is 0.00517

###

# conditionInfo: in ethanol, 315.65 K
quantityKind: solubility (mole fraction)
Would you mind answering with just the numeric figure?

Briefly, solubility (mole fraction) measured for Nc1ccccc1N : 0.0221

###

# conditionInfo: in acetonitrile, 288.15 K
quantityKind: solubility (mole fraction)
When you answer, write just the number.

Entry under test: Nc1ccccc1N . Its solubility (mole fraction) was 0.0643

###

# conditionInfo: in ethanol, 303.15 K
quantityKind: solubility (mole fraction)
Please give only the number in your answer, with no unit.

The measured solubility (mole fraction) associated with Nc1ccccc1N reads 0.0184

###

# conditionInfo: in acetonitrile, 318.15 K
quantityKind: solubility (mole fraction)
Please give only the number in your answer, with no unit.

Note to self: solubility (mole fraction) recorded for Nc1ccccc1N was 0.143

###

# conditionInfo: in ethanol, 305.65 K
quantityKind: solubility (mole fraction)
Write the value as a bare number.

solubility (mole fraction) measured on Nc1ccccc1N = 0.019

###

# conditionInfo: in acetonitrile, 283.15 K
quantityKind: solubility (mole fraction)
Answer field: number only, no words.

The measured solubility (mole fraction) associated with Nc1ccccc1N reads 0.0558

###

# conditionInfo: in acetonitrile, 290.65 K
quantityKind: solubility (mole fraction)
Give a plain numeric answer without units written out.

// sample Nc1ccccc1N , its solubility (mole fraction) was 0.0685

###

# conditionInfo: in ethanol, 285.65 K
quantityKind: solubility (mole fraction)
Quick one: just the number, no unit, thanks!

Short answer for Nc1ccccc1N : solubility (mole fraction) was 0.0144

###

# conditionInfo: in methanol, 295.65 K
quantityKind: solubility (mole fraction)

The recorded solubility (mole fraction) for Nc1ccccc1N is 0.0613

###

# conditionInfo: in methanol, 308.15 K
quantityKind: solubility (mole fraction)
I'd appreciate a reply containing only the number, no unit.

// recorded solubility (mole fraction) for Nc1ccccc1N : 0.0732

###

# conditionInfo: in water, 310.65 K
quantityKind: solubility (mole fraction)

# molecule Nc1ccccc1N ; its solubility (mole fraction) = 0.00803

###

# conditionInfo: in water, 318.15 K
quantityKind: solubility (mole fraction)
Answer using only a numeral; do not append any unit.

Sample Nc1ccccc1N ; solubility (mole fraction) observed: 0.0102

###

# conditionInfo: in methanol, 300.65 K
quantityKind: solubility (mole fraction)

response.value for Nc1ccccc1N (field: solubility (mole fraction)) = 0.0658

###

# conditionInfo: in acetonitrile, 293.15 K
quantityKind: solubility (mole fraction)
Form: value (number only, do not type unit).

So for Nc1ccccc1N , the logged solubility (mole fraction) turned out to be 0.0752

###

# conditionInfo: in ethanol, 313.15 K
quantityKind: solubility (mole fraction)

# solubility (mole fraction) of Nc1ccccc1N = 0.0213
